Experimental Target: Lysine-specific demethylase 4C (Homo sapiens)
Sequence (Q9H3R0 whole entry): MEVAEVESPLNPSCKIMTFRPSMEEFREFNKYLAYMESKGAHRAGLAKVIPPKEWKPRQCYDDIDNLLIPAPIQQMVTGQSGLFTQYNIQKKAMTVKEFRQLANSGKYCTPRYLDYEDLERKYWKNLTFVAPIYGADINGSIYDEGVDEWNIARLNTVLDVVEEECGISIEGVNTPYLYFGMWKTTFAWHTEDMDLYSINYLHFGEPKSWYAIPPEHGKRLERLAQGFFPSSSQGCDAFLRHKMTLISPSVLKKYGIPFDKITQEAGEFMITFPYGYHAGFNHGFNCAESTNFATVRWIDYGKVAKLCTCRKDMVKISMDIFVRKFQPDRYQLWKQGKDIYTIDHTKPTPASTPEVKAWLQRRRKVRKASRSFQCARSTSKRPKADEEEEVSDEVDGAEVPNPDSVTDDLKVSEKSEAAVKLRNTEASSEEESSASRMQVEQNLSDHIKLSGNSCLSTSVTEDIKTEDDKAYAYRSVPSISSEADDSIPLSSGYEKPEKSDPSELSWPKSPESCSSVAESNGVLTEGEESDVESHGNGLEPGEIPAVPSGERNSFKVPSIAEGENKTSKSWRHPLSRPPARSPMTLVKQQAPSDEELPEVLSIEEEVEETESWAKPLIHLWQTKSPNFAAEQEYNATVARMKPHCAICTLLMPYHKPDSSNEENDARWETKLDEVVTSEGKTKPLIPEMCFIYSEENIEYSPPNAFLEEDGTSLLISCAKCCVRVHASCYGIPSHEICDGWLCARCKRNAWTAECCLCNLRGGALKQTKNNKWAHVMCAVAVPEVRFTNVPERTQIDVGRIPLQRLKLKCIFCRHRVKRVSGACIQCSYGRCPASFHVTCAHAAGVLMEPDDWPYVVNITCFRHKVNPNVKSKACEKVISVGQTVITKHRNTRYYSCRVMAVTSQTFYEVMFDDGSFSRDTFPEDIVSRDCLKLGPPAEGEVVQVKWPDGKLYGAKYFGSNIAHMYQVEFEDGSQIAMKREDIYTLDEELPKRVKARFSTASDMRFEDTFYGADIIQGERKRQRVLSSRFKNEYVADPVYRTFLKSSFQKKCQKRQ
Test Details: Inhibition of KDM4C (unknown origin) using methylated H3 peptide as substrate by chemiluminescence assay
Measurement Context: read-out: IC50
Parameter: IC50 (nM)
Give just the number in nM; leave the unit off.

Examples with answers:
[
  {
    "Compound": "Cn1nc(-c2ccc(C#N)cc2)nc2c(=O)n(C)c(=O)nc1-2",
    "Result Value": 11
  },
  {
    "Compound": "Cn1nc(-c2ccc(F)cc2)nc2c(=O)n(C)c(=O)nc1-2",
    "Result Value": 81
  },
  {
    "Compound": "CN(C)c1ccccc1-c1nc2c(=O)n(C)c(=O)nc-2n(C)n1",
    "Result Value": 16
  }
]

Input: Which IC50 is listed for Cn1nc(Cc2ccccc2)nc2c(=O)n(C)c(=O)nc1-2 ?
Output: 29

Input: IC50 for COc1ccc(-c2nc3c(=O)n(C)c(=O)nc-3n(C)n2)cc1 ?
Output: 8

Input: Entry under review: Cn1nc(-c2ccncc2)nc2c(=O)n(C)c(=O)nc1-2 . Reported IC50?
Output: 19

Input: # query: IC50 of entry Cn1nc(-c2ccccc2)nc2n(C)c(=O)nc1-2
Output: 12700

Input: Requested field: IC50. Item: Cn1ncnc2c(=O)n(C)c(=O)nc1-2
Output: 541

Input: Return reported IC50; argument: Cn1c(=O)nc2[nH]nc(-c3ccccc3)nc-2c1=O
Output: 7630
